# Lookup of reported IC50 keyed by entry
- TARGET_UNDER_TEST: OXA-48 (UniProt Q6XEC0)
- TEST_METHOD_NOTES: β-lactamase enzyme inhibition assay, Class D oxacillinase
- CONDITIONS: read-out: OXA-48

Please review the entries below; each comes with its answer.
>>> measured_result("NCCNC(=O)c1cn(CC(=O)N[C@H]2Cc3cccc(C(=O)O)c3OB2O)nn1 [Example 37]")
"1000 to 10000 nM"
>>> measured_result("NCc1nnc(CC(=O)N[C@H]2Cc3cccc(C(=O)O)c3OB2O)[nH]1 [Example 23]")
"100 to 1000 nM"
>>> measured_result("O=C(Cn1cc(C2CCNC2)nn1)N[C@H]1Cc2cccc(C(=O)O)c2OB1O (stereo partly shown) [Example 89]")
"1000 to 10000 nM"
>>> measured_result("CCn1nnnc1CC(=O)N[C@H]1Cc2cccc(C(=O)O)c2OB1O [Example 54]")
"1000 to 10000 nM"

Identify IC50 associated with the molecule NCc1ccc(-c2cn(CC(=O)N[C@H]3Cc4cccc(C(=O)O)c4OB3O)nn2)cn1 [Example 75] 100 to 1000 nM

Input NCCn1cnc(CC(=O)N[C@H]2Cc3cccc(C(=O)O)c3OB2O)n1 [Example 118] , output reported IC50. 100 to 1000 nM

Please report IC50 for the following molecule: NCc1ncn(CC(=O)N[C@H]2Cc3cccc(C(=O)O)c3OB2O)n1 [Example 125] 1000 to 10000 nM

Determine from records and report IC50 for N=C(N)NCCn1nnc(CC(=O)N[C@H]2Cc3cccc(C(=O)O)c3OB2O)n1 [Example 48] 1000 to 10000 nM

Item NCCn1cc(Cn2nnc(CC(=O)N[C@H]3Cc4cccc(C(=O)O)c4OB3O)n2)nn1 [Example 124] : provide IC50 100 to 1000 nM

Look up and report measured IC50 for this entry: N=C(N)NCc1nc(CC(=O)N[C@H]2Cc3cccc(C(=O)O)c3OB2O)cs1 [Example 24] 100 to 1000 nM

---

Measured IC50 accompanies every entry in the list below.
- TARGET_UNDER_TEST: KPC-2 (Klebsiella pneumoniae, UniProt Q9F663)
- Construct: made in house; host or cells: E. coli BL21(DE3)
- Sequence (Q9F663 25-293, looked up): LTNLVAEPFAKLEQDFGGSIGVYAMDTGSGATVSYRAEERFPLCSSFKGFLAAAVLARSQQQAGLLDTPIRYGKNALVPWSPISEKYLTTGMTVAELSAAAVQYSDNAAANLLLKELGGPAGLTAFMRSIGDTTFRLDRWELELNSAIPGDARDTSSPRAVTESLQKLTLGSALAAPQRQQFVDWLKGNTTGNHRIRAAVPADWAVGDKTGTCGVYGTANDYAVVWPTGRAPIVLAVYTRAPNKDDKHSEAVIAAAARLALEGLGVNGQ
- TEST_METHOD_NOTES: β-lactamase enzyme inhibition assay, KPC-2 (imipenem substrate)
- Assay type: biochemical
- CONDITIONS: Class A; imipenem substrate, 300 nm; read-out: KPC-2
- Experimental: For SHV-5, Kpc-2, p99AmpC and OXA-1 β-lactamases, E. coli BL21(DE3) bacterial cells carrying expression plasmids (expressed as native untagged proteins) for the individual β-lactamases were grown in 1 L of Superbroth (Teknova Inc. Hollister, Calif.) supplemented with 100 μg/ml kanamycin selection and 1×5052 (0.5% glycerol, 0.05% glucose and 0.2% α-lactose) at 35° C. for 18-20 hours. […]

In the examples that follow, each entry is paired with its recorded IC50.
>>> measured_result("O=C(Cn1cc(C(=O)N[C@H]2CCNC2)nn1)N[C@H]1Cc2cccc(C(=O)O)c2OB1O")
"< 100 nM"
>>> measured_result("CNCc1cn(CC(=O)N[C@H]2Cc3cccc(C(=O)O)c3OB2O)nn1")
"100 to 1000 nM"

Determine its reported IC50: NCCSCc1cn(CC(=O)N[C@H]2Cc3cccc(C(=O)O)c3OB2O)nn1 < 100 nM

Give recorded IC50. NCC(O)Cc1cn(CC(=O)N[C@H]2Cc3cccc(C(=O)O)c3OB2O)nn1 (stereo partly drawn) < 100 nM

Please give the documented IC50 of O=C(Cn1cc(-c2cccnc2)nn1)N[C@H]1Cc2cccc(C(=O)O)c2OB1O < 100 nM

Report measured IC50; entry is NCCc1nnnn1CC(=O)N[C@H]1Cc2cccc(C(=O)O)c2OB1O < 100 nM

---

- TARGET_UNDER_TEST: KPC-2 (Klebsiella pneumoniae)
- Construct: made in house; host or cells: E. coli BL21(DE3)
- TEST_METHOD_NOTES: β-lactamase enzyme inhibition assay, KPC-2 (imipenem substrate)
- Type: biochemical
- CONDITIONS: Class A; imipenem substrate, 300 nm; read-out: KPC-2
MEASURED_ENDPOINT: IC50

Note IC50 for the molecule shown: NCc1nnc(CC(=O)N[C@H]2Cc3cccc(C(=O)O)c3OB2O)[nH]1 < 100 nM

Fill in reported IC50 for this entry: NCc1nnn(CC(=O)N[C@H]2Cc3cccc(C(=O)O)c3OB2O)c1-c1ccsc1 < 100 nM

Tell me measured IC50 for NCCNC(=O)c1cn(CC(=O)N[C@H]2Cc3cccc(C(=O)O)c3OB2O)nn1 please. < 100 nM

Output IC50 of NCc1nnn(CC(=O)N[C@H]2Cc3cccc(C(=O)O)c3OB2O)c1Cl < 100 nM

---

- TARGET_UNDER_TEST: VIM-2 (Escherichia coli, UniProt Q5U7L7)
- Construct: made in house; host or cells: E. coli BL21(DE3)
- TEST_METHOD_NOTES: β-lactamase enzyme inhibition assay, VIM-2 (nitrocefin substrate)
- Format: biochemical
- CONDITIONS: Class B; nitrocefin substrate, 486 nm; read-out: VIM-2
pIC50: −log10 of the molar value.
Measured pIC50 by item

>>> measured_result("O=C(Cc1cn2ccsc2n1)N[C@H]1Cc2cccc(C(=O)O)c2OB1O")
"6.00 to 7.00"
>>> measured_result("O=C(Cn1cc2c(n1)CNC2)N[C@H]1Cc2cccc(C(=O)O)c2OB1O")
"6.00 to 7.00"
>>> measured_result("N=C(N)NCC(O)Cc1cn(CC(=O)N[C@H]2Cc3cccc(C(=O)O)c3OB2O)nn1 (some centres unmarked)")
"6.00 to 7.00"

Assign pIC50 to the following record: O=C(Cn1cc(-c2ccccn2)nn1)N[C@H]1Cc2cccc(C(=O)O)c2OB1O 5.00 to 6.00

Give pIC50 for O=C(Cn1cc(C(=O)N[C@@H]2CCNC2)nn1)N[C@H]1Cc2cccc(C(=O)O)c2OB1O > 7.00

# return recorded pIC50 for input Nc1ccc(-c2cn(CC(=O)N[C@H]3Cc4cccc(C(=O)O)c4OB3O)nn2)cn1 5.00 to 6.00

Output measured pIC50 for this item: O=C(Cn1cc([N+](=O)[O-])cn1)N[C@H]1Cc2cccc(C(=O)O)c2OB1O 6.00 to 7.00

Provide only the value of recorded pIC50 for NCCn1cc(C(=O)N[C@H]2Cc3cccc(C(=O)O)c3OB2O)nn1 > 7.00

---

Overview of recorded IC50 for various molecules
- TARGET_UNDER_TEST: SHV-5 (Klebsiella pneumoniae)
- Sequence (P0A3M1 22-286): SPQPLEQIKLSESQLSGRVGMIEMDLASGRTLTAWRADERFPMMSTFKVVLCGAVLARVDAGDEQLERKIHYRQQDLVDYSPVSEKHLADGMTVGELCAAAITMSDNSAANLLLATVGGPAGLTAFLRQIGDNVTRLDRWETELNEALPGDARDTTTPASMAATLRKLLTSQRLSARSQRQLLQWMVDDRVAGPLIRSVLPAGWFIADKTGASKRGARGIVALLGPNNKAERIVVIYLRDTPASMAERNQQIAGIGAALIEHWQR
- TEST_METHOD_NOTES: β-lactamase enzyme inhibition assay, SHV-5 (cefotaxime substrate)

>>> measured_result("NCc1cnnn1CC(=O)N[C@H]1Cc2cccc(C(=O)O)c2OB1O")
"0.1 to 1 µM"
>>> measured_result("N=C(N)N1CC(c2cn(CC(=O)N[C@H]3Cc4cccc(C(=O)O)c4OB3O)nn2)C1")
"< 0.1 µM"
>>> measured_result("CCn1nnnc1CC(=O)N[C@H]1Cc2cccc(C(=O)O)c2OB1O")
"< 0.1 µM"

Then there is this molecule:
Return IC50 (reported value) for this molecule: O=C(Cn1cc([N+](=O)[O-])cn1)N[C@H]1Cc2cccc(C(=O)O)c2OB1O < 0.1 µM

---

- TARGET_UNDER_TEST: KPC-2 (Klebsiella pneumoniae)
- Construct: made in house; host or cells: E. coli BL21(DE3)
- TEST_METHOD_NOTES: β-lactamase enzyme inhibition assay, KPC-2 (imipenem substrate)
- Assay type: biochemical
- CONDITIONS: Class A; imipenem substrate, 300 nm; read-out: KPC-2
pIC50: −log10 of the molar value.
MEASURED_ENDPOINT: pIC50

>>> measured_result("O=C(Cn1nnc(CN2CCOCC2)c1CN1CCOCC1)N[C@H]1Cc2cccc(C(=O)O)c2OB1O")
"> 7.00"
>>> measured_result("CC(C)NCCc1cn(CC(=O)N[C@H]2Cc3cccc(C(=O)O)c3OB2O)nn1")
"5.00 to 6.00"
>>> measured_result("CC(C)(C(=O)N[C@H]1Cc2cccc(C(=O)O)c2OB1O)n1cc(CNCCN)nn1")
"6.00 to 7.00"
>>> measured_result("CNCc1c(CO)nnn1CC(=O)N[C@H]1Cc2cccc(C(=O)O)c2OB1O")
"6.00 to 7.00"
>>> measured_result("Cc1c(CN)nnn1CC(=O)N[C@H]1Cc2cccc(C(=O)O)c2OB1O")
"> 7.00"
>>> measured_result("O=C(Cn1cc(-c2ccsc2)nn1)N[C@H]1Cc2cccc(C(=O)O)c2OB1O")
"> 7.00"
>>> measured_result("O=C(Cn1nnnc1CC(=O)N[C@H]1Cc2cccc(C(=O)O)c2OB1O)N[C@H]1CCNC1")
"> 7.00"
>>> measured_result("N=CNCc1cn(CC(=O)N[C@H]2Cc3cccc(C(=O)O)c3OB2O)nn1")
"6.00 to 7.00"

Kindly indicate its recorded pIC50. Item: O=C(Cn1cncn1)N[C@H]1Cc2cccc(C(=O)O)c2OB1O > 7.00

Assign pIC50 to the following record: NOCC(=O)NCc1cn(CC(=O)N[C@H]2Cc3cccc(C(=O)O)c3OB2O)nn1 > 7.00

Identify the reported pIC50 for the following entry. O=C(Cn1cc2c(n1)CNC2)N[C@H]1Cc2cccc(C(=O)O)c2OB1O > 7.00

State its pIC50: O=C(Cn1cc(CF)nn1)N[C@H]1Cc2cccc(C(=O)O)c2OB1O > 7.00

Determine its reported pIC50: O=C(Cn1cc(CCO)nn1)N[C@H]1Cc2cccc(C(=O)O)c2OB1O > 7.00
